Source of measurements: patent US5834431A

Listed compounds paired with reported IC50
measuredTarget: B1 receptor (Homo sapiens)
Sequence (P46663 whole entry): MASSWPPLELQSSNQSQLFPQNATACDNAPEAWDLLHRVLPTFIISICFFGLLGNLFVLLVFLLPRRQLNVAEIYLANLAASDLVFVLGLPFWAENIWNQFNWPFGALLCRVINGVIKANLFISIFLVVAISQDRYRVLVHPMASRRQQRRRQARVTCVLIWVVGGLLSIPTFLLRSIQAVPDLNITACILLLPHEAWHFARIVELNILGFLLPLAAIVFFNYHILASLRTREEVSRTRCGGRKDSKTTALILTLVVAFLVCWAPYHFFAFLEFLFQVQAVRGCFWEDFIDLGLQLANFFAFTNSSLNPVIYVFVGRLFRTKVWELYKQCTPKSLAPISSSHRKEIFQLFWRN
Square brackets hold non-standard residues; d marks the D form. Peptide text beside a SMILES is read from it. dIgl = N[C@@H](C(=O)O)C1Cc2ccccc2C1; Gly(cPent) = N[C@H](C(=O)O)C1CCCC1; Igl = N[C@H](C(=O)O)C1Cc2ccccc2C1; Hyp = O=C(O)[C@@H]1C[C@@H](O)CN1; Tic = O=C(O)[C@@H]1Cc2ccccc2CN1; dTic = O=C(O)[C@H]1Cc2ccccc2CN1; 2Thi = N[C@@H](Cc1cccs1)C(=O)O
Write the value in nM as a bare number.

Example cases with answers are listed next.
1) N=C(N)NCCC[C@@H](N)C(=O)N[C@@H](CCCNC(=N)N)C(=O)N1CCC[C@H]1C(=O)N1C[C@H](O)C[C@H]1C(=O)NCC(=O)N[C@@H](Cc1cccs1)C(=O)N[C@@H](CO)C(=O)N1Cc2ccccc2C[C@@H]1C(=O)N[C@H](C(=O)O)C1CCCC1 [B9068, DArg-Arg-Pro-Hyp-Gly-Thi-Ser-DTic-Cpg] (H-[dR]RP[Hyp]G[2Thi]S[dTic][Gly(cPent)]-OH)
1.58
2) CC(C)C[C@H](NC(=O)[C@H](NC(=O)[C@H](CO)NC(=O)[C@@H](NC(=O)CNC(=O)[C@@H]1C[C@@H](O)CN1C(=O)[C@@H]1CCCN1C(=O)[C@H](CCCNC(=N)N)NC(=O)[C@H](N)CCCNC(=N)N)C1Cc2ccccc2C1)C1Cc2ccccc2C1)C(=O)O [B9816, DArg-Arg-Pro-Hyp-Gly-Igl-Ser-DIgl-Leu] (H-[dR]RP[Hyp]G[Igl]S[dIgl]L-OH)
1.26
3) N=C(N)NCCC[C@@H](N)C(=O)N[C@@H](CCCNC(=N)N)C(=O)N1CCC[C@H]1C(=O)N1C[C@H](O)C[C@H]1C(=O)NCC(=O)N[C@H](C(=O)N[C@@H](CO)C(=O)N1Cc2ccccc2C[C@H]1C(=O)N[C@H](C(=O)O)C1CCCC1)C1CCCC1 [B9004, DArg-Arg-Pro-Hyp-Gly-Cpg-Ser-Tic-Cpg] (H-[dR]RP[Hyp]G[Gly(cPent)]S[Tic][Gly(cPent)]-OH)
3.16
4) N=C(N)NCCC[C@@H](N)C(=O)N[C@@H](CCCNC(=N)N)C(=O)N1CCC[C@H]1C(=O)N1C[C@H](O)C[C@H]1C(=O)NCC(=O)N[C@H](C(=O)N[C@@H](CO)C(=O)N1Cc2ccccc2C[C@@H]1C(=O)N[C@H](C(=O)O)C1CCCC1)C1Cc2ccccc2C1 [B9840, DArg-Arg-Pro-Hyp-Gly-Igl-Ser-DTic-Cpg] (H-[dR]RP[Hyp]G[Igl]S[dTic][Gly(cPent)]-OH)
0.794
5) N=C(N)NCCC[C@@H](N)C(=O)N[C@@H](CCCNC(=N)N)C(=O)N1CCC[C@H]1C(=O)N1C[C@H](O)C[C@H]1C(=O)NCC(=O)N[C@H](C(=O)N[C@@H](CO)C(=O)N1Cc2ccccc2C[C@@H]1C(=O)N[C@H](C(=O)O)C1CCCC1)C1CCCC1 [B9066, DArg-Arg-Pro-Hyp-Gly-Cpg-Ser-DTic-Cpg] (H-[dR]RP[Hyp]G[Gly(cPent)]S[dTic][Gly(cPent)]-OH)
0.501

# evaluate next
Record CC(C)C[C@H](NC(=O)[C@H](NC(=O)[C@H](CO)NC(=O)[C@@H](NC(=O)CNC(=O)[C@@H]1C[C@@H](O)CN1C(=O)[C@@H]1CCCN1C(=O)[C@@H](N)CCCNC(=N)N)C1Cc2ccccc2C1)C1Cc2ccccc2C1)C(=O)O [B9814, Arg-Pro-Hyp-Gly-Igl-Ser-DIgl-Leu] (H-RP[Hyp]G[Igl]S[dIgl]L-OH) ; system B1 receptor (Homo sapiens); IC50 = 6.31
